The values you see were collected from patent US20240116985A1.

Molecular target: full-length beta-Catenin (Uniprot ID P35222) (Homo sapiens (Human)) (UniProt P35222)
Experiment: fluorescence polarization competition; peptide titrated against 10 nM full-length beta-catenin + 10 nM 5FAM-TCF4(10-53)
Starred links: 1 amine or outer side, 2 acyl side, 3 side chain; linkers in the order of their positions; H or OH if unused. Positions of bridges follow the written chain, without caps; N, C: chain ends. Non-standard residues stand in square brackets, D forms with d. Primed or numbered codes have the meaning given here. PyrS2″ = (S)-3-amino-1-((pent-4-en-1-yloxy)carbonyl)pyrrolidine-3-carboxylic acid (stapling residue), C=CCCCOC(=O)N1CC[C@@](N[*:1])(C(=O)[*:2])C1; B5(4) = 2,2-bis(4-pentenyl)glycine = 2-amino-2-(pent-4-en-1-yl)hept-6-enoic acid (stitching residue), C=CCCCC(CCCC=C)(N[*:1])C(=O)[*:2]; Phe(2-Cl) = N[C@@H](Cc1ccccc1Cl)C(=O)O; Phe(2-Me) = Cc1ccccc1C[C@H](N)C(=O)O; Bta = N[C@@H](Cc1csc2ccccc12)C(=O)O; αAllylPro = C=CC[C@@]1(C(=O)O)CCCN1; tBuAla = CC(C)(C)C[C@H](N)C(=O)O; S8 = C=CCCCCCC[C@](C)(N)C(=O)O; Leu(ol) = CC(C)C[C@H](N)CO
Property: IC50; scope: individual binders
Give the value; after it, write the unit.

Guide cases for IC50, answers given:
- binder: "XDAXDEAAFVXXXQ (not fully specified; N-terminal Ac; PL3 at 1, B5 at 4, S8 at 11 (staples 1-4 and 4-11 by olefin metathesis); 2pyrA at 12; BztA at 13; C-terminal NH2) [I-383]"
  reported_endpoint: "IC50"
  reported_result: "5000 nM"
- binder: "Ac-[αAllylPro]D[tBuAla][B5(4)]DDAAFN[PyrS2″][Phe(2-Cl)][Bta][Leu(ol)] (staple 1-4, 4-11) [I-1080]"
  reported_endpoint: "IC50"
  reported_result: "6 nM"

Alright, here's another binder for you.
Request: # IC50 lookup, item Ac-[αAllylPro]DA[B5(4)]DDAAFA[S8][Phe(2-Me)][Bta]Q-NH2 (staple 1-4, 4-11) [I-367]
Result: 177 nM
